Provenance of the data: patent US5646316A

MEASURED ON: stromelysin (Homo sapiens, UniProt P08254)
Sequence (P08254 100-477): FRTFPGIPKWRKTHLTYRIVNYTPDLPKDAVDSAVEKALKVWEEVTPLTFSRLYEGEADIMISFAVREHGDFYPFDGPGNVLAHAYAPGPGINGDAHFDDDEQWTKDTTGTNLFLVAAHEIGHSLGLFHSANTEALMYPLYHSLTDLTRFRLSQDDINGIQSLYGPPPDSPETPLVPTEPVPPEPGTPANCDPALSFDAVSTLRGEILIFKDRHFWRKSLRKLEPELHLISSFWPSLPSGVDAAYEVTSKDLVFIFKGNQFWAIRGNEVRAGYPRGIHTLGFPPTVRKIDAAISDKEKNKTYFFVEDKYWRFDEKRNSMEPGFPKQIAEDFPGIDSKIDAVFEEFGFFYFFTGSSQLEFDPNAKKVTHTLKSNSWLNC
PROTOCOL TEXT: Assay of Stromelysin Inhibition Activity (fluorogenic substrate hydrolysis)
Format: biochemical
CONDITION LABEL: at 10 μM of compound; read-out: percent inhibition of stromelysin
Readings of inhibition at 10 µM for the listed compounds
All answers are understood in %, so give the number only.

COMPOUND | REPORTED METRIC | UNIT TEXT | EXPERIMENTAL VALUE
C[C@H](CCC(=O)NOCc1ccccc1)[C@H]1CC[C@H]2[C@@H]3CC[C@@H]4C[C@H](O)CC[C@]4(C)[C@H]3CC[C@]12C [Compound 11, Lithocholyl-O-Benzylhydroxamate] | inhibition at 10 µM | % | 25
C[C@H](CCC(=O)NO)[C@H]1CC[C@H]2[C@@H]3CC[C@@H]4C[C@H](O)CC[C@]4(C)[C@H]3CC[C@]12C [Compound 13, Lithocholylhydroxamic Acid] | inhibition at 10 µM | % | 56
C[C@H](CCC(=O)N[C@@H](Cc1ccccc1)C(=O)NO)[C@H]1CC[C@H]2[C@@H]3[C@H](O)C[C@@H]4C[C@H](O)CC[C@]4(C)[C@H]3CC[C@]12C | inhibition at 10 µM | % | 80
C[C@H](CCC(=O)N[C@H](CCc1ccccc1)C(=O)NO)[C@H]1CC[C@H]2[C@@H]3CC[C@@H]4C[C@H](O)CC[C@]4(C)[C@H]3CC[C@]12C | inhibition at 10 µM | % | 92
C[C@H](CCC(=O)N[C@@H](Cc1c[nH]c2ccccc12)C(=O)NO)[C@H]1CC[C@H]2[C@@H]3CC[C@@H]4C[C@H](O)CC[C@]4(C)[C@H]3CC[C@]12C | inhibition at 10 µM | % | 90
C[C@H](CCC(=O)N[C@@H](Cc1ccccc1)C(=O)NC1CCSC1=O)[C@H]1CC[C@H]2[C@@H]3CC[C@@H]4C[C@H](O)CC[C@]4(C)[C@H]3CC[C@]12C (stereo partly drawn) | inhibition at 10 µM | % | 57
C[C@H](CCC(=O)O)[C@H]1CC[C@H]2[C@@H]3C[C@H](O)[C@@H]4C[C@H](O)CC[C@]4(C)[C@H]3CC[C@]12C [Compound 4, hyodeoxycholic acid, reference compound] | inhibition at 10 µM | % | 18
C[C@H](CCC(=O)N[C@@H](Cc1ccccc1)C(=O)NO)[C@H]1CC[C@H]2[C@@H]3CC[C@@H]4C[C@H](O)CC[C@]4(C)[C@H]3CC[C@]12C | inhibition at 10 µM | % | 85

Under stromelysin (Homo sapiens, UniProt P08254): inhibition at 10 µM value of C[C@H](CCC(=O)NOCc1ccccc1)[C@H]1CC[C@H]2[C@@H]3[C@H](O)C[C@@H]4C[C@H](O)CC[C@]4(C)[C@H]3CC[C@]12C [Compound 12, Chenodeoxycholyl-O-Benzylhyroxamate] ?
5

----------
Measured percent inhibition of collagenase, listed per entry.
Tested on: collagenase
PROTOCOL TEXT: Assay of Collagenase Inhibition Activity
Assay type: biochemical
CONDITION LABEL: at 10 μM of compound; 45 minutes at 37° C.
The reply should contain only the number, in %.

Returns the measured percent inhibition of collagenase for the input molecule. Input: C[C@H](CCC(=O)N[C@@H](Cc1ccccc1)C(=O)NO)[C@H]1CC[C@H]2[C@@H]3[C@H](O)C[C@@H]4C[C@H](O)CC[C@]4(C)[C@H]3CC[C@]12C [Compound 16]
38

Item C[C@H](CCC(=O)O)[C@H]1CC[C@H]2[C@@H]3CC[C@@H]4C[C@H](O)CC[C@]4(C)[C@H]3CC[C@]12C [Compound 1, Lithocholic acid, reference compound] has what recorded percent inhibition of collagenase?
27

Reported percent inhibition of collagenase for C[C@H](CCC(=O)N[C@@H](Cc1ccccc1)C(=O)NO)[C@H]1CC[C@H]2[C@@H]3CC[C@@H]4C[C@H](O)CC[C@]4(C)[C@H]3CC[C@]12C [Compound 15] : what is it?
58

Recorded percent inhibition of collagenase for C[C@H](CCC(=O)N[C@@H](Cc1ccccc1)C(=O)NC1CCSC1=O)[C@H]1CC[C@H]2[C@@H]3CC[C@@H]4C[C@H](O)CC[C@]4(C)[C@H]3CC[C@]12C (stereo partly drawn) [Compound 20] , please?
57

Which percent inhibition of collagenase value is on record for C[C@H](CCC(=O)O)[C@H]1CC[C@H]2[C@@H]3[C@H](O)C[C@@H]4C[C@H](O)CC[C@]4(C)[C@H]3C[C@H](O)[C@]12C [Compound 7, Cholic acid, reference compound] ?
21

----------
MEASURED ON: stromelysin (Homo sapiens)
PROTOCOL TEXT: Assay of Stromelysin Inhibition Activity (fluorogenic substrate hydrolysis)
Format: biochemical
CONDITION LABEL: at 10 μM of compound; read-out: percent inhibition of stromelysin
REPORTED METRIC: inhibition at 10 µM (%)
# output: bare number, implied unit %

Solved entries (count: 2):
COMPOUND | MEASURED ON | REPORTED METRIC | EXPERIMENTAL VALUE
C[C@H](CCC(=O)N[C@@H](CCc1ccccc1)C(=O)NO)[C@H]1CC[C@H]2[C@@H]3CC[C@@H]4C[C@H](O)CC[C@]4(C)[C@H]3CC[C@]12C | stromelysin (Homo sapiens) | inhibition at 10 µM | 90
C[C@H](CCC(=O)O)[C@H]1CC[C@H]2[C@@H]3[C@@H](O)C[C@@H]4C[C@H](O)CC[C@]4(C)[C@H]3CC[C@]12C [Compound 3, ursodeoxycholic acid, reference compound] | stromelysin (Homo sapiens) | inhibition at 10 µM | 21

Consider now this further compound.
Quick check: inhibition at 10 µM of C[C@H](CCC(=O)NO)[C@H]1CC[C@H]2[C@@H]3[C@H](O)C[C@@H]4C[C@H](O)CC[C@]4(C)[C@H]3C[C@H](O)[C@]12C [Compound 23, Cholylhydroxamic Acid] ?
12

----------
stromelysin (Homo sapiens): reported IC50 for various molecules.
Numbers only; they are read as µM.

Example cases with answers are listed next.
MOLECULE | MEASURED ON | UNIT TEXT | IC50
CC(C)C[C@H](NC(=O)CC[C@@H](C)[C@H]1CC[C@H]2[C@@H]3[C@H](O)C[C@@H]4C[C@H](O)CC[C@]4(C)[C@H]3CC[C@]12C)C(=O)NO | stromelysin (Homo sapiens) | µM | 5
CC(C)C[C@H](NC(=O)CC[C@@H](C)[C@H]1CC[C@H]2[C@@H]3CC[C@@H]4C[C@H](O)CC[C@]4(C)[C@H]3CC[C@]12C)C(=O)NO [Compound 9, Lithocholyl-(L)-Leucine Hydroxamic Acid] | stromelysin (Homo sapiens) | µM | 1
C[C@H](CCC(=O)N[C@H](Cc1ccccc1)C(=O)NO)[C@H]1CC[C@H]2[C@@H]3CC[C@@H]4C[C@H](O)CC[C@]4(C)[C@H]3CC[C@]12C | stromelysin (Homo sapiens) | µM | 1.2
CC(C)C(CC(=O)NO)NC(=O)CC[C@@H](C)[C@H]1CC[C@H]2[C@@H]3CC[C@@H]4C[C@H](O)CC[C@]4(C)[C@H]3CC[C@]12C (stereo partly drawn) [Compound 21, Lithocholyl-β-Leucine Hydroxamic Acid] | stromelysin (Homo sapiens) | µM | 3
C[C@H](CCC(=O)O)[C@H]1CC[C@H]2[C@@H]3CC[C@@H]4C[C@H](O)CC[C@]4(C)[C@H]3CC[C@]12C [Compound 1, Lithocholic acid, reference compound] | stromelysin (Homo sapiens) | µM | 38

Would you kindly look at the next entry?
I'm curious: which IC50 was measured for CCOC(=O)[C@H](CS)NC(=O)[C@H](Cc1ccccc1)NC(=O)CC[C@@H](C)[C@H]1CC[C@H]2[C@@H]3CC[C@@H]4C[C@H](O)CC[C@]4(C)[C@H]3CC[C@]12C tested on stromelysin (Homo sapiens)?
2

----------
Listed next: entries and their corresponding inhibition at 10 µM.
MEASURED ON: stromelysin (Homo sapiens, UniProt P08254)
PROTOCOL TEXT: Assay of Stromelysin Inhibition Activity (fluorogenic substrate hydrolysis)
Type: biochemical
CONDITION LABEL: read-out: percent inhibition of stromelysin
Your answer is read as %, so omit the unit and give the number.

COMPOUND | inhibition at 10 µM / %
C[C@H](CCC(=O)NCCC[N+](C)(C)CC(O)CS(=O)(=O)[O-])[C@H]1CC[C@H]2[C@@H]3[C@H](O)C[C@@H]4C[C@H](O)CC[C@]4(C)[C@H]3C[C@H](O)[C@]12C (stereo partly shown) [Compound 5, reference compound] | 15

I have this compound here, C[C@H](CCC(=O)O)[C@H]1CC[C@H]2[C@@H]3CC[C@@H]4C[C@H](O)CC[C@]4(C)[C@H]3C[C@H](O)[C@]12C [Compound 2, deoxycholic acid, reference compound] , and I need its recorded inhibition at 10 µM.
23

GET /values?readout=inhibition at 10 µM&item= C[C@H](CCC(=O)O)[C@H]1CC[C@H]2[C@@H]3[C@H](O)C[C@@H]4C[C@H](O)CC[C@]4(C)[C@H]3C[C@H](O)[C@]12C [Compound 7, Cholic acid, reference compound]
24

# inhibition at 10 µM lookup, item C[C@H](CCC(=O)NCCC[N+](C)(C)CCCS(=O)(=O)[O-])[C@H]1CC[C@H]2[C@@H]3[C@H](O)C[C@@H]4C[C@H](O)CC[C@]4(C)[C@H]3C[C@H](O)[C@]12C [Compound 8, reference compound]
26
